tested on: Rattus norvegicus; experiment: Estrogenic activity in ovariectomized female Sprague-Dawley rat assessed as change in uterus weight measured as micrograms of […]-estradiol that produce an estrogenic response equivalent to compound at 25 mg/kg, po administered through intubation tube daily for 7 days; type: ADME, organism-based; parameters: dose 25 mg/kg, route oral; settings: in vivo, 168 h
Each record is given 1.0 if its reported estradiol equivalent is strictly below 0.7 µg. Records at or above 0.7 µg are given 0.0.

Previously resolved entries follow.
O=C(c1ccccc1Cl)C(c1ccccc1)c1ccccn1 (stereo unspecified); 0.0
Cc1ccccc1C(=O)C(c1ccccc1)c1ccccn1 (stereo unspecified); 0.0
O=C(c1ccccc1Br)C(c1ccccc1)c1ccccn1 (stereo unspecified); 0.0
O=C(c1ccccc1F)C(c1ccccc1)c1ccccn1 (stereo unspecified); 1.0

// next entry
[ask] I wonder whether CC(C)(C)c1ccccc1C(=O)C(c1ccccc1)c1ccccn1 (stereo unspecified) has estradiol equivalent below 0.7 µg. Can you tell?
[reply] 1.0

Source of measurements: ChEMBL document CHEMBL3272235
